Numbers sourced from ChEMBL document CHEMBL5365493.

- MEASUREMENT_TARGET: Dipeptidyl peptidase 4 (Homo sapiens, UniProt P27487)
- Sequence (P27487 whole entry): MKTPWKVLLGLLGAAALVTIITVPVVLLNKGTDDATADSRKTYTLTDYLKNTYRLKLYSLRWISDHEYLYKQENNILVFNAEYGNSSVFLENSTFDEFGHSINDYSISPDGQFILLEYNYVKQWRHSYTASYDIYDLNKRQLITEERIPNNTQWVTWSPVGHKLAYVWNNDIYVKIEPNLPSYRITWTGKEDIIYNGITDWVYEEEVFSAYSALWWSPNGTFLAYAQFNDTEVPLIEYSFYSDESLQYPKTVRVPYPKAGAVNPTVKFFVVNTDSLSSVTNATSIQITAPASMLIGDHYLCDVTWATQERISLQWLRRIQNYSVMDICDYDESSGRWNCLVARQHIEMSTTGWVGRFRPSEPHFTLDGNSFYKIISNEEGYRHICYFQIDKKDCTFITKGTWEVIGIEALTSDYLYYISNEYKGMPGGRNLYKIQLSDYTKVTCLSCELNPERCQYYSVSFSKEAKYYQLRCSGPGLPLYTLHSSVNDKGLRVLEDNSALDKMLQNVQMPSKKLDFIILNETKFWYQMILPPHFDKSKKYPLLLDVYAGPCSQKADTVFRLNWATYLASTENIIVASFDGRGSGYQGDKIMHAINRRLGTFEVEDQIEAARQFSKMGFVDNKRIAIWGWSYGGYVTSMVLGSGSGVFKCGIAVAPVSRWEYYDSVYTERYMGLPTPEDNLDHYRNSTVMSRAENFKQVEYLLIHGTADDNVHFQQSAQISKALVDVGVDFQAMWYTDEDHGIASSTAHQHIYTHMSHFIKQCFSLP
- TEST_NAME: Inhibition of human seminal plasma DPP4 using Ala-Pro-paranitroanilide as substrate incubated for 15 mins by […]
- Assay type: cell-free
METRIC: IC50

Study these solved cases before continuing.
entry_smiles=N#Cc1cccc(CNC23CC4CC(CC(NCC(=O)N5Cc6ccccc6C5)(C4)C2)C3)c1 result="> 10 µM"
entry_smiles=O=C(NC12CC3CC(CC(O)(C3)C1)C2)OC12CC3CC(CC(NCC(=O)N4Cc5ccccc5C4)(C3)C1)C2 result="> 10 µM"
entry_smiles=O=C(NC12CC3CC(CC(C3)C1)C2)OC12CC3CC(CC(NCC(=O)N4Cc5ccccc5C4)(C3)C1)C2 result="> 10 µM"

Let us move to another entry and its IC50.
Fill in: Dipeptidyl peptidase 4 (Homo sapiens, UniProt P27487) IC50 for O=C(NC(c1ccc(F)cc1)c1ccc(F)cc1)OC12CC3CC(CC(NCC(=O)N4Cc5ccccc5C4)(C3)C1)C2 = > 10 µM
